measured.on: MMP-8 (HNC) (Homo sapiens)
Sequence (P22894 101-467): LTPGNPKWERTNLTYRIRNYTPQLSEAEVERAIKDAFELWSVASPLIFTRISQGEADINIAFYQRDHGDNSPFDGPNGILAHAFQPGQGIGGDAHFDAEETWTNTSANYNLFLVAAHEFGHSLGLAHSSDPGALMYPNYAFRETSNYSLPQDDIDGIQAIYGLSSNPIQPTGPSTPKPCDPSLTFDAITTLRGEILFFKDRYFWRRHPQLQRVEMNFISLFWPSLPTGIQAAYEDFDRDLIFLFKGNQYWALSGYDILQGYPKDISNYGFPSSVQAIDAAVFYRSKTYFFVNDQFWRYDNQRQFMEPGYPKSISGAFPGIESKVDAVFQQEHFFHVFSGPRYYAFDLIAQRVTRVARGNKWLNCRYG
method.description: Ki determination with fluorogenic synthetic substrates, recombinant MMP-8
stated.conditions: Tris/50 mM HCl buffer, pH 6.8, 10 mM CaCl2, 25° C.; read-out: affinity constant Ki, MMP-8 HNC
readout.kind: Ki

compound	recorded.measurement
NC(=O)C(Cc1c[nH]c2ccccc12)NC(=O)C(CCCc1ccccc1)CP(=O)(O)C(Cc1ccccc1)NC(=O)c1ccc2ccccc2n1 (centres unmarked) [Compound 32]	5 nM
NC(=O)C(Cc1c[nH]c2ccccc12)NC(=O)C(CCCc1ccccc1)CP(=O)(O)C(Cc1ccccc1)NC(=O)CNc1cc(Cl)ccc1O (centres unmarked) [Compound 29]	7.5 nM
NC(=O)C(Cc1c[nH]c2ccccc12)NC(=O)C(CCCc1ccccc1)CP(=O)(O)C(Cc1ccccc1)NC(=O)CNc1ccccc1 (centres unmarked) [Compound 27]	4.5 nM
NC(=O)C(Cc1c[nH]c2ccccc12)NC(=O)C(CCCc1ccccc1)CP(=O)(O)C(Cc1ccccc1)NC(=O)OCc1ccccc1 (single isomer, unassigned) [Compound 15 R II]	65 nM
NC(=O)C(Cc1c[nH]c2ccccc12)NC(=O)C(CCCCc1ccccc1)CP(=O)(O)C(Cc1ccccc1)NC(=O)OCc1ccccc1 (centres unmarked) [Compound 16]	4.3 nM
NC(=O)C(Cc1c[nH]c2ccccc12)NC(=O)C(CCCc1ccccc1)CP(=O)(O)C(Cc1ccccc1)NC(=O)COCc1ccccc1 (centres unmarked) [Compound 26]	2.5 nM
CC(NC(=O)OCc1ccccc1)P(=O)(O)CC(CCCc1ccccc1)C(=O)NC(Cc1c[nH]c2ccccc12)C(N)=O (centres unmarked) [Compound 9]	8 nM
NC(=O)C(Cc1c[nH]c2ccccc12)NC(=O)C(CCCc1ccccc1)CP(=O)(O)C(Cc1ccccc1)NC(=O)CNc1cccc(Cl)c1 (centres unmarked) [Compound 28]	4 nM
